Entry source: patent US7494996B2

# Test system: Two-Spotted Spider Mite
# testMethodNotes: Protocol 1 Two-Spotted Spider Mite (MTA) foliar spray test
# Type: in vivo, Tetranychus urticae
# conditionLabel: Protocol 1, DOSE 150; percentage of mites killed 1-day post-treatment
Reported MTA values for a set of compounds
Field format: number, assumed %, no unit text.

# compound, recordedResult
measured = [
    ("O=C1CNC(c2cc(Cl)ccc2Cl)=NN1CC(F)(F)F [Compound 70]", 71),
    ("Cc1c(Cl)cc(-c2ncc(=O)n(CC(F)(F)F)n2)cc1Cl [Compound 253]", 100),
    ("O=C1CNC(c2cc(Cl)cc(Cl)c2)=NN1CC(F)(F)F [Compound 43]", 0),
    ("CCCCN1N=C(c2ccc(Cl)c(Cl)c2)NCC1=O [Compound 101]", 0),
    ("Cc1cccc(N2N=C(c3cccc(Cl)c3)NCC2=O)c1 [Compound 112]", 0),
]

Query block: Given CCCCCCCCCCn1nc(-c2ccc(Cl)cc2)ncc1=O [Compound 260] , respond with its MTA.
Result block: 0

Query block: Given O=C1CNC(c2ccc(Cl)c(Cl)c2)=NN1Cc1ccccc1 [Compound 103] , respond with its MTA.
Result block: 23

Query block: Given O=C1CNC(c2ccccn2)=NN1CC(F)(F)F [Compound 52] , respond with its MTA.
Result block: 100

Query block: Given O=c1cnc(-c2ccc(Cl)cc2)nn1C1CCCCC1 [Compound 256] , respond with its MTA.
Result block: 90

Query block: Given CCC(C)n1nc(C2CCCCC2)ncc1=O (stereo not shown) [Compound 255] , respond with its MTA.
Result block: 100
